Reported SH2 binding enrichment values follow for various sequences
# assayedSystem: Grb2 SH2 (UniProt P62993)
# Sequence (P62993 whole entry, looked up, the tested form may be a part): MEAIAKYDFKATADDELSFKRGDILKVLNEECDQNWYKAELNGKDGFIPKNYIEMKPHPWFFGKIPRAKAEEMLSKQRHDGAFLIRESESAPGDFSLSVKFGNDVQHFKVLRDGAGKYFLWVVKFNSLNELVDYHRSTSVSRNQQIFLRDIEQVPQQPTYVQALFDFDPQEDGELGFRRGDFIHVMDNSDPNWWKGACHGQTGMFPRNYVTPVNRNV
# methodDescription: SH2 binding enrichment of the phosphorylated peptide, bacterial display (enrichment ratio); higher = better substrate or ligand; peptides without Tyr show the background;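 further: peptide library displayed on the E. coli surface as eCPX fusions, selected cells deep-sequenced, score is each peptide's frequency after selection divided by its frequency in the input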
observationType: SH2 binding enrichment

>>> df
                            sequencedata              assayedsystem         observationtype  number
 0          SLMNQYVNKEF [RAB7A_Y28_K32E]  Grb2 SH2 (UniProt P62993)  SH2 binding enrichment    2.46
 1     KDAGDYKFKAK [LRIT3_Y326_C328Y_YF]  Grb2 SH2 (UniProt P62993)  SH2 binding enrichment   0.792
 2         KDFETYQPFQN [CTNND2_Y1157_YF]  Grb2 SH2 (UniProt P62993)  SH2 binding enrichment   0.948
 3               ASGKYYAMKIL [AKT3_Y174]  Grb2 SH2 (UniProt P62993)  SH2 binding enrichment   0.957
 4              LTFDEYRNISQ [ANXA3_Y216]  Grb2 SH2 (UniProt P62993)  SH2 binding enrichment    2.68
 5               EAAFVYAISSA [WNT4_Y113]  Grb2 SH2 (UniProt P62993)  SH2 binding enrichment   0.684
 6              YETVKYFNNER [ABCB7_Y345]  Grb2 SH2 (UniProt P62993)  SH2 binding enrichment   0.868
 7          GGGGGYNCSSG [FUS_Y232_R234C]  Grb2 SH2 (UniProt P62993)  SH2 binding enrichment   0.928
 8         KVGNEYVNKGQ [MYH7_Y410_T412N]  Grb2 SH2 (UniProt P62993)  SH2 binding enrichment    2.24
 9         PSQRRNVYYYS [PTEN_Y174_Y174N]  Grb2 SH2 (UniProt P62993)  SH2 binding enrichment   0.923
10               PVKSEYPSIKL [NPC2_Y119]  Grb2 SH2 (UniProt P62993)  SH2 binding enrichment   0.752
11              RLLRGHDQYAY [HLA-B_Y137]  Grb2 SH2 (UniProt P62993)  SH2 binding enrichment    1.19
12              ETGNLYIAKVE [CNTN4_Y180]  Grb2 SH2 (UniProt P62993)  SH2 binding enrichment   0.705
13      CTTIHYDFMCN [TP53_Y234_N235D_YF]  Grb2 SH2 (UniProt P62993)  SH2 binding enrichment     1.2
14       EPTPGYEVSQR [TSC2_Y1788_G1791S]  Grb2 SH2 (UniProt P62993)  SH2 binding enrichment   0.858
15       AGIKAYQSCLQ [ADGRA2_Y377_T375K]  Grb2 SH2 (UniProt P62993)  SH2 binding enrichment   0.767
16              SASQEYHIVKK [PDZD2_Y557]  Grb2 SH2 (UniProt P62993)  SH2 binding enrichment    0.78
17         IIEDPYYGNDF [ACP1_Y132_S137F]  Grb2 SH2 (UniProt P62993)  SH2 binding enrichment   0.958
18              KVFRVYQGQQP [MUTYH_Y494]  Grb2 SH2 (UniProt P62993)  SH2 binding enrichment   0.849
19       FLNSIYKCRDE [ROS1_Y2227_S2229C]  Grb2 SH2 (UniProt P62993)  SH2 binding enrichment   0.895
20      LLREWYLPDPF [SIX3_Y225_Q227P_YF]  Grb2 SH2 (UniProt P62993)  SH2 binding enrichment     1.3
21             SFSGEYGGGGG [ZG16_Y30_YF]  Grb2 SH2 (UniProt P62993)  SH2 binding enrichment   0.663
22         SVVVSYEPPEV [TP53_Y220_P219S]  Grb2 SH2 (UniProt P62993)  SH2 binding enrichment    0.82
23  AEVDTYCRHNF [HLA-DRB1_Y107_A103E_YF]  Grb2 SH2 (UniProt P62993)  SH2 binding enrichment   0.826
24              WLQKLYNNFVN [MYO5C_Y526]  Grb2 SH2 (UniProt P62993)  SH2 binding enrichment    1.31
25               SLRAHYDTPRS [DOK7_Y405]  Grb2 SH2 (UniProt P62993)  SH2 binding enrichment   0.712
26          VDGSLYETHPQ [HK1_Y417_K418E]  Grb2 SH2 (UniProt P62993)  SH2 binding enrichment   0.828
27              HFNLTYRILSF [MMP23B_Y95]  Grb2 SH2 (UniProt P62993)  SH2 binding enrichment   0.586
28              KVVQEYERVII [NPHS2_Y131]  Grb2 SH2 (UniProt P62993)  SH2 binding enrichment   0.811
29           AMCVRYDGVEV [ADAMTSL2_Y594]  Grb2 SH2 (UniProt P62993)  SH2 binding enrichment   0.805
30         PLDGEYFTRQI [TP53_Y327_L330R]  Grb2 SH2 (UniProt P62993)  SH2 binding enrichment   0.692
31      PGAPAYCVLME [MYO5A_Y1245_R1246C]  Grb2 SH2 (UniProt P62993)  SH2 binding enrichment   0.628
32         FDNPVCQKTTE [LDLR_Y828_Y828C]  Grb2 SH2 (UniProt P62993)  SH2 binding enrichment   0.969
33          KVPELYEIHTE [BCR_Y554_K558T]  Grb2 SH2 (UniProt P62993)  SH2 binding enrichment   0.969
34              DGYIDYAEFAK [MCFD2_Y138]  Grb2 SH2 (UniProt P62993)  SH2 binding enrichment   0.733
35               EWKNNYPRLRE [OPA1_Y582]  Grb2 SH2 (UniProt P62993)  SH2 binding enrichment   0.738
36         CTTNHYNYMCN [TP53_Y234_I232N]  Grb2 SH2 (UniProt P62993)  SH2 binding enrichment   0.802
37              RFLRGYRQDAY [HLA-A_Y137]  Grb2 SH2 (UniProt P62993)  SH2 binding enrichment     1.1
38                IQKWEYVPLGP [FAH_Y244]  Grb2 SH2 (UniProt P62993)  SH2 binding enrichment   0.834
39                DHYNQYEQQKM [CHD7_Y75]  Grb2 SH2 (UniProt P62993)  SH2 binding enrichment    0.56
40         DGTESYHTVSS [PLK1_Y462_L463H]  Grb2 SH2 (UniProt P62993)  SH2 binding enrichment   0.769
